Test system: A549/ATCC NSCLC
Test: NCI-60 one-dose screen, 48 h (100 = growth as untreated, 0 = no growth, -100 = all killed)
Details: 10 µM
Compounds without any hit were thinned out: in the full panel of roughly 83,000, 20% have a hit.
Please assign a class to every record based on measured growth, with ranges small value (below 40%), mid value (40% to below 90%), large value (90% or more)

# bin label for O=C1OCC2=C1C(c1cccc(Cl)c1)c1cc3c(cc1N2CCO)OCO3 (stereo not drawn)
small value

Which class is correct for the following compound? `Cc1ncc(-c2ccoc2)c(NC2CCCCCC2)n1`
large value

Band assignment needed for `NC(=S)N=Nc1c(O)c2ccccc2c2ccccc12` please.
small value

Hello team, could you let me know which band the following compound falls into: CCOCC(=O)C(C#N)c1ccc(Cl)c(Cl)c1 (stereo not drawn)
large value
